Test system: MOLT-4 leukemia
Test: NCI tumour cell line growth inhibition, 48 h
Measured Endpoint: TGI

Per the record, COc1cc(C(C)O)c[n+](Cc2ccccc2)c1 (stereo not drawn) has TGI of > 100 µM

CC1=NC(=Cc2ccccc2O)C(=O)N1n1c(-c2ccccc2)nc2ccccc2c1=O yielded TGI of > 100 µM

response.value for CCOP1(=O)C=C(C)C(Cl)=C(C)C1 (stereo not drawn) (field: TGI) = 76.1 µM

Lab book: TGI of CCN(CC)CCCCCCNc1cc(OC)cc2cccnc12 noted as 3.86 µM

Value of measured TGI for the entry c1cnc2c(c1)ccc1cccnc12 : 8.37 µM

Sample CCOP1(=O)CC(C)=C(Cl)C(O)C1 (stereo not drawn) ; TGI observed: > 100 µM

TGI recorded for this molecule, Cc1ccc2nc(N/N=C/c3sccc3C)cc(C)c2c1 , is > 100 µM
